Just for reference, patent US11116757B2 is where these values come from.

- study-system: DCN1-UBC12 interaction (Homo sapiens (Human))
- method-description: biochemical
- Assay type: binding
- condition: read-out: TR-FRET IC50
measure-name: IC50

* CCN1CCC(N(Cc2ccco2)C(=O)Nc2ccc(OC)cc2)CC1 | > 67.6 µM
* CCN1CCC(N(Cc2ccco2)C(=O)Nc2ccc(F)c(Cl)c2)CC1 | > 70.9 µM
* CCCC(C)N1CCC(N(Cc2ccccc2)C(=O)Nc2cccc(OC)c2OC)CC1 (centres unmarked) | > 59.8 µM
* Cn1ccc2cc(CN3CCC(N(Cc4ccccc4)C(=O)Nc4cc(F)cc(C(F)(F)F)c4)CC3)ccc21 | > 20.8 µM
* CCCC(C)N1CCC(N(CCNC(=O)CCl)C(=O)Nc2cccc(C(F)(F)F)c2)CC1 (centres unmarked) [A251] | > 59.9 µM
* CCCC(C)N1CCC(N(Cc2ccccc2)C(=O)Nc2ccc(CN3CCCC3)cc2)CC1 (centres unmarked) | > 58.5 µM
* O=C(Nc1cccc(Cl)c1)NC1CCN(Cc2ccccc2)CC1 | > 73.1 µM
* CCCC(C)N1CCC(N(CCNC(=O)CCl)C(=O)Nc2cccc(C(F)(F)F)c2)CC1 (centres unmarked) [drawing 837] | > 60 µM
* CCCN1CCC(NC(=O)Nc2ccc(C)c(Cl)c2)CC1 | > 55.5 µM
* O=C(Nc1ccc2c(c1)C(=O)NCC2)NC1CCN(Cc2ccccc2)CC1 | > 84.8 µM
* COc1cccc(NC(=O)NC2CCN(C(C)C)CC2)c1 | > 67.6 µM

---

- study-system: DCN1-UBC12 interaction (Homo sapiens (Human), UniProt Q96GG9)
- Sequence (Q96GG9 60-248 limits assumed): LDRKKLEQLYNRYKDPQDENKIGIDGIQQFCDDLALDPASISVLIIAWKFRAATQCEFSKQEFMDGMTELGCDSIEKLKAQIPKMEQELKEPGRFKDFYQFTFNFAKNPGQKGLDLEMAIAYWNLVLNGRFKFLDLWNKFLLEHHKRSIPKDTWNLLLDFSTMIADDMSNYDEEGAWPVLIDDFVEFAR
- method-description: biochemical
- Assay type: binding
- condition: read-out: TR-FRET IC50
pIC50: −log10 of the molar value.
measure-name: pIC50

- COc1cc(OC)cc(C(=O)N2CCCC(c3nc4ccccc4s3)C2)c1 (stereo not drawn) [D30]: < 4.17
- C#CCCCN1CCC(N(Cc2ccccc2NC(=O)CCl)C(=O)Nc2cccc(C(F)(F)F)c2)CC1 [A253]: < 5.16
- COc1ccc(CN(C(=O)Nc2ccccc2C(F)(F)F)C2CCN(C(C)=O)CC2)cc1 [B85]: < 4.17
- C=CC(=O)NCc1ccccc1CN(C(=O)Nc1cccc(C(F)(F)F)c1)C1CCN(C(C)CCC)CC1 (stereo not drawn) [A239]: < 4.29
- COc1ccc(C(=O)NCC(=O)N2CCC(c3nc4ccccc4s3)CC2)cc1OC [D26]: < 4.17
- CCCC(C)N1CCC(N(Cc2ccccc2)C(=O)Nc2ccc(F)c(F)c2F)CC1 (stereo not drawn) [A286]: < 4.14
- CCCCN1CCC(CC(=O)OC)(NC(=O)Nc2cccc(C(F)(F)F)c2)CC1 [A254]: < 4.22
- COc1cc(CN2CCC(NC(=O)Nc3ccccc3)CC2)cc(OC)c1OC [B45]: < 4.18
- CCCC(C)N1CCC(N(Cc2ccccc2)C(=O)Nc2c(C)cc(Br)cc2C)CC1 (stereo not drawn) [A265]: < 4.18

---

Quick reference: IC50 of the listed items.
- study-system: DCN1-UBC12 interaction (Homo sapiens (Human), UniProt Q96GG9)
- method-description: biochemical
- Type: binding
- condition: read-out: TR-FRET IC50
measure-name: IC50

- CC(=O)N1CCC(N(C(=O)Nc2cccc(C(F)(F)F)c2)C(C)C)CC1: > 67.6 µM
- CCCC(C)N1CCC(N(Cc2ccccc2)C(=O)Nc2cccc(C)c2C)CC1 (centres unmarked): > 67.5 µM
- CCc1ccccc1NC(=O)NC1CCN(Cc2ccccc2)CC1: > 67.6 µM
- CC(=O)N1CCC(N(Cc2ccco2)C(=O)Nc2ccc(Br)cc2)CC1: > 67.6 µM
- CCCN1CCC(NC(=O)Nc2ccccc2Cl)CC1: > 67.6 µM
- COc1ccc(C)cc1NC(=O)N(Cc1ccc(C)o1)C1CCN(Cc2ccccc2)CC1: > 67.6 µM
- CCCC(C)N1CCC(N(Cc2ccccc2)C(=O)Nc2ccc([N+](=O)[O-])c(C(F)(F)F)c2)CC1 (centres unmarked): > 48.4 µM
- CCCC(C)N1CCC(N(Cc2ccccc2)C(=O)Nc2ccc(O)cc2)CC1 (centres unmarked): > 98.6 µM
- O=C(c1ccc(F)cc1)N1CCC(c2nc3ccccc3s2)CC1: > 46.2 µM
- Cn1nccc1-c1cccc(NC(=O)NC2CCN(Cc3ccccc3)CC2)c1: > 64.6 µM
- Cc1ccc(CN(C(=O)Nc2cc(F)ccc2F)C2CCN(Cc3ccccc3)CC2)o1: > 67.6 µM
